molecular target: Human recombinant His-tagged PFKFB3 (Homo sapiens, UniProt Q16875); construct: His; test: PFKFB3 IC50 Determination Assay (in vitro kinase assay, modified ADP-Glo system); conditions: ATP 20 μM and fructose-6-phosphate 2 μM (Km), 25 nM PFKFB3, 2 h, rt, ADP-Glo luminescence
Sequence (Q16875 whole entry): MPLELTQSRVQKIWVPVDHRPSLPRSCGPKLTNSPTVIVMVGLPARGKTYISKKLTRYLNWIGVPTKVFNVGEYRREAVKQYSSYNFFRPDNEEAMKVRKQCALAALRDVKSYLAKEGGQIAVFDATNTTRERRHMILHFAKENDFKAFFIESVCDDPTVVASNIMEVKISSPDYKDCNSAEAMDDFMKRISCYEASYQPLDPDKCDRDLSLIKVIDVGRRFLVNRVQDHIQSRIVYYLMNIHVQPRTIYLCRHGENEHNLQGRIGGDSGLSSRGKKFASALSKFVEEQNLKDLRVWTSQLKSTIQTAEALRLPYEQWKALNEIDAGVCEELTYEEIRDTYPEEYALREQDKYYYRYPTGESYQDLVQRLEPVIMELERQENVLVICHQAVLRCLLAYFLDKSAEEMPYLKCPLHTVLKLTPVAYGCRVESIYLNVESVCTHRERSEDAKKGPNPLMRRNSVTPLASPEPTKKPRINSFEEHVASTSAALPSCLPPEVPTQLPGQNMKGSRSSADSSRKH
pIC50: −log10 of the molar value.
endpoint: pIC50

1) Cc1nc2cc(-c3cc(Nc4cnccc4S(C)(=O)=O)cc4nccnc34)ccc2s1 [Example 169] = 4.00 to 5.00
2) Cn1ccc2ccc(-c3cc(Nc4cc(-c5nn[nH]n5)ccc4S(C)(=O)=O)cc4nccnc34)cc21 [Example 43] = 6.00 to 9.00
3) Cn1ccc2ccc(-c3cc(N4CCc5ccncc54)cc4nccnc34)cc21 [Example 2] = 6.00 to 9.00
4) CN(C)Cc1ccncc1Nc1cc(-c2ccc3ccn(C)c3c2)c2nccnc2c1 [Example 175] = 6.00 to 9.00
